assay: solvent given as SMILES; settings: in Cc1ccccc1
Give fluorescence lifetime for every item shown.
Answers are plain numbers, in ns.

{"Smiles String": "CCCCCCCCc1ccc(-c2ccc(/C=C(\\C#N)c3ccc(-c4cccc5cccc(-c6ccc(/C(C#N)=C/c7ccc(-c8ccc(CCCCCCCC)cc8)cc7)cc6)c45)cc3)cc2)cc1", "Output Unit": "ns", "fluorescence lifetime": 4.9}
{"Smiles String": "c1ccc(-c2nnc(-c3ccc(N4c5ccccc5N(c5ccccc5)c5ccccc54)cc3)o2)cc1", "Output Unit": "ns", "fluorescence lifetime": 9}

Okay, now this molecule:
Enquiry: Read the entry `Cc1ccc2c(c1)C(c1ccccc1)(c1ccccc1)c1cc(C)ccc1N2c1ccc2c(c1)N(c1ccccc1)c1ccccc1B2c1c(C(C)C)cc(C(C)C)cc1C(C)C` and write its reported fluorescence lifetime.
Return: 5.6

====

assay: solvent given as SMILES; conditions: in CCCCCCCCO
Rule: measured fluorescence lifetime below 0.8 ns gets true; anything equal to or greater than 0.8 ns gets false.

{"Smiles String": "CCC1(CC)c2cc(-c3ccc(-c4ccc5c(c4)C(CC)(CC)c4cc(C(C)(C)C)ccc4-5)cc3)ccc2-c2ccc(C(C)(C)C)cc21", "Class Name": "false"}

# next compound below
Enquiry: Please state whether fluorescence lifetime is below 0.8 ns for `CC1=CC(C)=[N+]2C1=Cc1c3ccccc3c(C#Cc3ccsc3)n1[B-]2(F)F`
Return: false

====

test: solvent given as SMILES; settings: in C1CCOC1
Quick rule for you: fluorescence lifetime at 2 ns or higher means Satisfied, lower means Not satisfied.

{"Compound": "N#Cc1coc2ccccc2c1=O", "Class Name": "Not satisfied"}
{"Compound": "Cc1ccc(C2=C3C=CC(Cl)=[N+]3[B-](F)(F)n3c(Cl)ccc32)cc1", "Class Name": "Satisfied"}
{"Compound": "CCn1c2ccccc2c2cc(-c3cc(-c4ccc5c(c4)c4ccccc4n5CC)nc(-c4ccccc4)n3)ccc21", "Class Name": "Not satisfied"}
{"Compound": "c1ccc(-c2ccc(-c3ccc(-n4c5ccccc5c5ccccc54)cc3)c3nsnc23)cc1", "Class Name": "Satisfied"}
{"Compound": "CCC1(CC)c2ccccc2-c2c1c1c(c3c2C(CC)(CC)c2cc(B(c4c(C)cc(C)cc4C)c4c(C)cc(C)cc4C)ccc2-3)C(CC)(CC)c2cc(B(c3c(C)cc(C)cc3C)c3c(C)cc(C)cc3C)ccc2-1", "Class Name": "Satisfied"}
{"Compound": "COc1cc2cc(OC)c(C#Cc3ccc([N+](=O)[O-])cc3)cc2cc1C#Cc1ccc([N+](=O)[O-])cc1", "Class Name": "Not satisfied"}
{"Compound": "CC(O)CC1=N/C(=C\\c2cccc(N(C)C)c2)C(=O)N1C (stereo unspecified)", "Class Name": "Satisfied"}
{"Compound": "CCN1C(=O)C(C2C(=O)c3c4ccccc4cc4cc5ccccc5c2c34)C(=O)N(CC)C1=S (stereo unspecified)", "Class Name": "Satisfied"}
{"Compound": "C[Si](C)(C)c1ccc(-c2ccc(-c3ccc(-c4ccc(-c5ccc([Si](C)(C)C)cc5)s4)c4nsnc34)s2)cc1", "Class Name": "Satisfied"}
{"Compound": "CCCCCCCCN1c2ccc(C#Cc3ccc(C(F)(F)F)cc3)cc2Sc2cc(C=O)ccc21", "Class Name": "Satisfied"}

# next compound below
Enquiry: Record `CCCCCCCc1ccc(C2=[N+]3C(=C4c5cc(OCC(CC)CC)c(-c6ccc(CCCCCCC)o6)n5[B-](F)(F)[n+]5nnn(c54)[B-]3(F)F)C=C2OCC(CC)CC)o1` ; criterion: fluorescence lifetime no lower than 2 ns. Met?
Return: Not satisfied

====

Give fluorescence lifetime for every item shown.
test: solvent given as SMILES; details: in CN(C)C=O
One number for each entry, in ns.

{"Smiles String": "CCC1=C(C)C2=C(C)c3c(C)c(CC)c(C)n3[B-](F)(F)[N+]2=C1C", "Measurement Name": "fluorescence lifetime", "Output Unit": "ns", "Test Result": 5.57}
{"Smiles String": "COc1ccc2c(=O)c3c([nH]c2c1)-c1ccccc1NC3(C)C", "Measurement Name": "fluorescence lifetime", "Output Unit": "ns", "Test Result": 10.5}
{"Smiles String": "O=C1c2ccc3c4c(Oc5ccccc5)cc5c6c(ccc(c7c(Oc8ccccc8)cc(c2c37)C(=O)N1c1ccc(O)cc1)c64)C(=O)N(c1ccc(O)cc1)C5=O", "Measurement Name": "fluorescence lifetime", "Output Unit": "ns", "Test Result": 0.05}
{"Smiles String": "CC1=CC(C)=[N+]2C1=Cc1c3ccccc3c(C#Cc3ccsc3)n1[B-]2(F)F", "Measurement Name": "fluorescence lifetime", "Output Unit": "ns", "Test Result": 4.8}
{"Smiles String": "COC(=O)c1ccccc1-c1c2ccc(=[NH2+])cc-2oc2cc(N)ccc12", "Measurement Name": "fluorescence lifetime", "Output Unit": "ns", "Test Result": 3.74}
{"Smiles String": "CCCCCCCCC1(CCCCCCCC)c2cc(-c3ccc(C(=O)OC)cc3)ccc2-c2ccc(-c3ccc(C(=O)OC)cc3)cc21", "Measurement Name": "fluorescence lifetime", "Output Unit": "ns", "Test Result": 1.48}
{"Smiles String": "CN(C)c1ccc(/C=C/C=C2\\CC/C(=C\\c3ccc(N(C)C)cc3)C2=O)cc1", "Measurement Name": "fluorescence lifetime", "Output Unit": "ns", "Test Result": 1.32}
{"Smiles String": "CN(C)c1ccc2nc(/C=C/c3ccccc3)c(=O)oc2c1", "Measurement Name": "fluorescence lifetime", "Output Unit": "ns", "Test Result": 3.65}

Enquiry: Read the entry `CCCCCCCCC1(CCCCCCCC)c2cc(-c3ccc([Si](C)(C)C)cc3)ccc2-c2ccc(-c3ccc([Si](C)(C)C)cc3)cc21` and write its reported fluorescence lifetime.
Return: 1.01

====

Give fluorescence lifetime for every item shown.
experiment: solvent given as SMILES; conditions: in OC1CCCCC1
One number for each entry, in ns.

Below, each entry is followed by its recorded fluorescence lifetime result.
{"Compound": "COC(=O)C(Cc1ccc2oc(-c3ccc(N(C)c4ccccc4)cc3)nc2c1)NC(=O)OC(C)(C)C (centres undefined)", "fluorescence lifetime / ns": 4.88}
{"Compound": "COC(=O)C(Cc1ccc2oc(-c3ccc4c(c3)c3ccccc3n4-c3ccccc3)nc2c1)NC(=O)OC(C)(C)C (centres undefined)", "fluorescence lifetime / ns": 1.58}
{"Compound": "COC(=O)C(Cc1ccc2oc(-c3ccc(N(C)C)cc3)nc2c1)NC(=O)OC(C)(C)C (centres undefined)", "fluorescence lifetime / ns": 1.28}

Enquiry: Read the entry COC(=O)C(Cc1ccc2oc(-c3ccc(Nc4ccccc4)cc3)nc2c1)NC(=O)OC(C)(C)C (centres undefined) and write its reported fluorescence lifetime.
Return: 2.23

====

assay: solvent given as SMILES; conditions: in ClCCl
Rule: measured fluorescence lifetime below 3 ns gets satisfied; anything equal to or greater than 3 ns gets not satisfied.

Study these solved cases before continuing.
{"Molecule": "N#C/C(=C\\c1ccc(-c2ccncc2)cc1)c1ccc(-c2ccncc2)cc1", "Class Name": "satisfied"}
{"Molecule": "COc1ccc(C#Cc2ccc(C#N)cc2)cc1", "Class Name": "satisfied"}
{"Molecule": "COc1ccc(-c2nc(C(C)=O)c(C)o2)cc1", "Class Name": "satisfied"}

# next molecule below
Enquiry: Please state whether fluorescence lifetime is below 3 ns for c1ccc(-p2c3ccccc3c3sc4ccccc4c32)cc1 (stereo not given)
Return: not satisfied

====

experiment: solvent given as SMILES; conditions: in ClC(Cl)Cl
Rule: measured fluorescence lifetime below 4 ns gets T; anything equal to or greater than 4 ns gets F.

{"Compound": "CCCCCCN1C(=O)c2cccc3c(-c4scc5c4OCCO5)ccc(c23)C1=O", "Class Name": "T"}
{"Compound": "CCCCCCCCN1c2ccccc2Sc2cc(/C=C/c3ccc(N(c4ccc(/C=C/c5ccc6c(c5)Sc5ccccc5N6CCCCCCCC)cc4)c4ccc(/C=C/c5ccc(/C=C/c6ccc(N(c7ccc(/C=C/c8ccc(N(c9ccccc9)c9ccccc9)cc8)cc7)c7ccc(/C=C/c8ccc(N(c9ccccc9)c9ccccc9)cc8)cc7)cc6)c6nsnc56)cc4)cc3)ccc21", "Class Name": "T"}

Enquiry: Please state whether fluorescence lifetime is below 4 ns for `COc1ccc2c3ccc(OC)cc3c3cc4c(C)cc(=O)oc4cc3c2c1`
Return: F

Enquiry: Please state whether fluorescence lifetime is below 4 ns for CCC1=C(C)C2C(c3ccc(-c4ccc(-c5nc6c7ccccc7c7ccccc7c6n5-c5ccc(C(C)(C)C)cc5)cc4)cc3)c3c(C)c(CC)c(C)n3[B-](F)(F)[N+]2=C1C (stereo not drawn)
Return: F

Enquiry: Please state whether fluorescence lifetime is below 4 ns for `C(=C\c1cccc2ccccc12)/c1ccc(-c2nnc(-c3ccc(-c4cc5ccccc5s4)cc3)o2)cc1`
Return: T

Enquiry: Please state whether fluorescence lifetime is below 4 ns for CCOC(=O)C1(O)c2cc3ccc4cccc5ccc(c2C(=O)N1C(C)(C)C)c3c45 (stereo not drawn)
Return: F

Enquiry: Please state whether fluorescence lifetime is below 4 ns for `CCCCCCN1C(=O)c2cccc3c(-c4cccs4)ccc(c23)C1=O`
Return: T

Value source: the Deep4Chem optical property database
